assayed.system: recombinant human RHBDL4 (Homo sapiens)
Construct: The entire RHBDL4 and RHBDL4-S144A cDNAs were subcloned into the pcDNA3.1 vector; 6xHis (C, cleaved yes); made in house; host or cells: Freestyle 293-F cells (transient transfection, pcDNA3.1-HisA)
test.description: Inhibition of RHBDL4 proteolysis of IQ6 (FRET-based in vitro assay)
Assay type: biochemical
condition.parameters: IQ6 substrate; inhibitor pre-incubated with RHBDL4 for 1 h, then reacted with IQ6 for 2 h; n = 3, average ± S.E.M.
*1 amine or outer side, *2 acyl side, *3 side chain or, on linkers, in order; H or OH if unused. Where a SMILES comes first, the peptide text is derived from it. [ ]: non-standard residue; d: D form. The star is where a group is joined. NH(4-phenylbutyl) = c1ccc(CCCCN*)cc1; X1 = C[C@H](N[*:1])C(=O)C(=O)[*:2]
test.readout: IC50 (µM)
Give the number; µM is assumed, so skip it.

Inquiry: Reported IC50, molecule CC(=O)N1CCC[C@H]1C(=O)NCC(=O)N[C@@H](Cc1ccccc1)C(=O)N[C@@H](CO)C(=O)N[C@@H](C)C(=O)C(=O)NCCCCc1ccccc1 [compound 2] (Ac-PGFS[X1]-{NH(4-phenylbutyl)}) : ____
Reply text: 3.4
